experimentalProtocol: Ratio between Ki of L1210-R enzyme and Michaelis-Menten constant (kM)
Format: functional
valueKind: Ratio
// no unit, no text: just the number

>  <chemicalStructure>
O=c1nc(NO)c(Cl)cn1[C@H]1C[C@H](O)[C@@H](COP(=O)(O)O)O1

>  <Ratio>
4.9

$$$$
>  <chemicalStructure>
O=c1[nH]c(=O)n([C@H]2C[C@H](O)[C@@H](COP(=O)(O)O)O2)cc1Cl

>  <Ratio>
0.088

$$$$
>  <chemicalStructure>
O=c1nc(NO)ccn1[C@H]1C[C@H](O)[C@@H](COP(=O)(O)O)O1

>  <Ratio>
5.5

$$$$

Data request: Returns the measured Ratio for the input compound. Input: O=c1nc(NO)c(Br)cn1[C@H]1C[C@H](O)[C@@H](COP(=O)(O)O)O1
Data returned: 22

Data request: Give its Ratio value. Item: O=c1[nH]c(=O)n([C@H]2C[C@H](O)[C@@H](COP(=O)(O)O)O2)cc1Br
Data returned: 0.27
